tested on: Fibroblast; experiment: Multiplex assay against human fibroblast; type: toxicity, cell-based; conditions: 12 h, 10 µM, compound concentration 10 uM, replicate 1
Please enter y where Population Hoechst High Intensity Objects (%) is greater than or equal to 2%, and n where it is lower.

| compound | testedOn | classLabel |
| --- | --- | --- |
| CN1CCN2c3ncccc3Cc3ccccc3C2C1 (stereo not given) | Fibroblast | n |
| O=C(NCCO)c1cccc(-c2cc(Nc3ccc(OC(F)(F)F)cc3)ncn2)c1 | Fibroblast | y |
| Cc1ccc(C(C)(O)c2nc3ccccc3s2)c(C)c1 (stereo not given) | Fibroblast | n |
| O=C(O)Cc1ccccc1Nc1c(Cl)cccc1Cl | Fibroblast | n |
| COc1c(C)cc(NC(=O)c2nn(Cc3ccc(F)cc3)c3c2CN(C(=O)c2ccc[nH]2)C[C@]3(C)C(N)=O)cc1C | Fibroblast | n |
| CC(C)(C)c1ccc(S(=O)(=O)Nc2ccc(Cl)cc2C(=O)c2cc[n+]([O-])cc2)cc1 | Fibroblast | y |
| CNC[C@H](O)c1ccc(O)c(O)c1 [EPINEPHRINE] | Fibroblast | y |
| CN(C)CCCc1cc(C(=O)Nc2ccc(-c3ccncc3)cc2)ccc1O.Cl.Cl | Fibroblast | y |
| O=C(O)c1cc2ccccc2c(Cc2c(O)c(C(=O)O)cc3ccccc23)c1O | Fibroblast | y |
